pIC50: −log10 of the molar value.
# Pantothenate synthetase (Mycobacterium tuberculosis): pIC50 values follow
# Sequence (P9WIL5 whole entry): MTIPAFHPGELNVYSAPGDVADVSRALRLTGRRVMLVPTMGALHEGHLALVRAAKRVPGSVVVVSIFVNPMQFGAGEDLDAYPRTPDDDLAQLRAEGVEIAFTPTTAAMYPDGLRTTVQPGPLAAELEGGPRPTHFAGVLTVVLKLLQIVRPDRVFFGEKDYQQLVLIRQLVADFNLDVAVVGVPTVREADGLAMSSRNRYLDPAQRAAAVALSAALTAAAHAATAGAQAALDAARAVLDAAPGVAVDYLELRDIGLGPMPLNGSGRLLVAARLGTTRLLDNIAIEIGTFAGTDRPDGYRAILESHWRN
Readout label: pIC50

> print(dat)
                                    compound                     target.or.test.system  readout.label  relation.operator  number
 1  NC(=O)c1c(NC(=O)c2ccc([N+](=O)[O-])o2)sc2c1CCN(S(=O)(=O)c1ccc(Br)cc1)C2  Pantothenate synthetase (Mycobacterium tuberculosis)          pIC50                  <    4.60
 2  CC(=O)c1ccc(S(=O)(=O)N2CCc3c(sc(NC(=O)c4ccc([N+](=O)[O-])s4)c3C(N)=O)C2)cc1  Pantothenate synthetase (Mycobacterium tuberculosis)          pIC50                  <    4.60
 3  NC(=O)c1c(NC(=O)c2ccc([N+](=O)[O-])o2)sc2c1CCN(C(=S)Nc1ccc(F)cc1)C2  Pantothenate synthetase (Mycobacterium tuberculosis)          pIC50                  =    4.68
 4  NC(=O)c1c(NC(=O)c2ccc([N+](=O)[O-])s2)sc2c1CCN(C(=S)Nc1ccc([N+](=O)[O-])cc1)C2  Pantothenate synthetase (Mycobacterium tuberculosis)          pIC50                  =    5.04
 5  NC(=O)c1c(NC(=O)c2ccc([N+](=O)[O-])s2)sc2c1CCN(C(=O)Nc1ccc([N+](=O)[O-])cc1)C2  Pantothenate synthetase (Mycobacterium tuberculosis)          pIC50                  =    5.01
 6               NNC(=O)c1ccncc1 [ISONIAZID]  Pantothenate synthetase (Mycobacterium tuberculosis)          pIC50                  <    4.60
 7  NC(=O)c1c(NC(=O)c2ccc([N+](=O)[O-])s2)sc2c1CCN(C(=S)Nc1ccc(F)cc1)C2  Pantothenate synthetase (Mycobacterium tuberculosis)          pIC50                  =    4.99
 8  CC(=O)N1CCc2c(sc(NC(=O)c3cccs3)c2C(N)=O)C1  Pantothenate synthetase (Mycobacterium tuberculosis)          pIC50                  <    4.60
 9  NC(=O)c1c(NC(=O)c2ccc([N+](=O)[O-])o2)sc2c1CCN(C(=O)Nc1ccc(Cl)cc1)C2  Pantothenate synthetase (Mycobacterium tuberculosis)          pIC50                  <    4.60
10  NC(=O)c1c(NC(=O)c2ccc([N+](=O)[O-])o2)sc2c1CCN(C(=O)Nc1ccc([N+](=O)[O-])cc1)C2  Pantothenate synthetase (Mycobacterium tuberculosis)          pIC50                  =    4.70
11  NC(=O)c1c(NC(=O)c2ccc([N+](=O)[O-])o2)sc2c1CCN(C(=S)Nc1ccc([N+](=O)[O-])cc1)C2  Pantothenate synthetase (Mycobacterium tuberculosis)          pIC50                  =    4.73
12  NC(=O)c1c(NC(=O)c2ccc([N+](=O)[O-])o2)sc2c1CCN(S(=O)(=O)c1ccc(F)cc1)C2  Pantothenate synthetase (Mycobacterium tuberculosis)          pIC50                  =    4.76
13  NC(=O)c1c(NC(=O)c2ccc([N+](=O)[O-])s2)sc2c1CCN(C(=S)NCc1ccccc1)C2  Pantothenate synthetase (Mycobacterium tuberculosis)          pIC50                  =    4.88
14  NC(=O)c1c(NC(=O)c2ccc([N+](=O)[O-])s2)sc2c1CCN(S(=O)(=O)c1ccc([N+](=O)[O-])cc1)C2  Pantothenate synthetase (Mycobacterium tuberculosis)          pIC50                  =    5.23
15  COc1ccc(S(=O)(=O)N2CCc3c(sc(NC(=O)c4ccc([N+](=O)[O-])o4)c3C(N)=O)C2)cc1  Pantothenate synthetase (Mycobacterium tuberculosis)          pIC50                  =    4.69
16  NC(=O)c1c(NC(=O)c2ccc([N+](=O)[O-])s2)sc2c1CCN(C(=S)Nc1ccc(Cl)cc1)C2  Pantothenate synthetase (Mycobacterium tuberculosis)          pIC50                  =    5.20
17  NC(=O)c1c(NC(=O)c2ccc([N+](=O)[O-])o2)sc2c1CCN(S(=O)(=O)c1ccc([N+](=O)[O-])cc1)C2  Pantothenate synthetase (Mycobacterium tuberculosis)          pIC50                  <    4.60
18  NC(=O)c1c(NC(=O)c2ccc([N+](=O)[O-])s2)sc2c1CCN(C(=O)NCc1ccccc1)C2  Pantothenate synthetase (Mycobacterium tuberculosis)          pIC50                  =    4.74
19  NC(=O)c1c(NC(=O)c2ccc([N+](=O)[O-])s2)sc2c1CCN(S(=O)(=O)c1ccc(Br)cc1)C2  Pantothenate synthetase (Mycobacterium tuberculosis)          pIC50                  =    4.85
20  NC(=O)c1c(NC(=O)c2ccc([N+](=O)[O-])o2)sc2c1CCN(C(=S)Nc1ccc(Cl)cc1)C2  Pantothenate synthetase (Mycobacterium tuberculosis)          pIC50                  =    4.72
21  COc1ccc(S(=O)(=O)N2CCc3c(sc(NC(=O)c4ccc([N+](=O)[O-])s4)c3C(N)=O)C2)cc1  Pantothenate synthetase (Mycobacterium tuberculosis)          pIC50                  =    4.72
22  CC[C@@H](CO)NCCN[C@@H](CC)CO [ETHAMBUTOL]  Pantothenate synthetase (Mycobacterium tuberculosis)          pIC50                  <    4.60
23  NC(=O)c1c(NC(=O)c2ccc([N+](=O)[O-])s2)sc2c1CCN(C(=O)Nc1ccc(Cl)cc1)C2  Pantothenate synthetase (Mycobacterium tuberculosis)          pIC50                  =    4.99
24  CC(=O)c1ccc(S(=O)(=O)N2CCc3c(sc(NC(=O)c4ccc([N+](=O)[O-])o4)c3C(N)=O)C2)cc1  Pantothenate synthetase (Mycobacterium tuberculosis)          pIC50                  <    4.60
25  COc1ccc(NC(=O)N2CCc3c(sc(NC(=O)c4ccc([N+](=O)[O-])o4)c3C(N)=O)C2)cc1  Pantothenate synthetase (Mycobacterium tuberculosis)          pIC50                  =    4.82
26  COc1ccc(NC(=O)N2CCc3c(sc(NC(=O)c4ccc([N+](=O)[O-])s4)c3C(N)=O)C2)cc1  Pantothenate synthetase (Mycobacterium tuberculosis)          pIC50                  =    4.84
27  NC(=O)c1c(NC(=O)c2ccc([N+](=O)[O-])o2)sc2c1CCN(C(=O)NCc1ccccc1)C2  Pantothenate synthetase (Mycobacterium tuberculosis)          pIC50                  =    4.85
28  NC(=O)c1c(NC(=O)c2ccc([N+](=O)[O-])o2)sc2c1CCN(C(=S)NCc1ccccc1)C2  Pantothenate synthetase (Mycobacterium tuberculosis)          pIC50                  =    4.77
29  NC(=O)c1c(NC(=O)c2ccc([N+](=O)[O-])s2)sc2c1CCN(S(=O)(=O)c1ccc(F)cc1)C2  Pantothenate synthetase (Mycobacterium tuberculosis)          pIC50                  =    4.93
